src = patent US8455023B2

Tested on: Neonatal foreskin primary human epidermal melanocytes (HEMn-MP)
assay-overview: Melanin quantitation analysis in HEMn-MP cells
Format: cell-based
test-context: FIG. 2C
readout-kind: Cell melanin content (in words)

NC(=S)Nc1ccccc1 [N-phenylthiourea, reference compound] : reduced melanin content
O=c1cc(CO)occ1O [Kojic acid, reference compound] : reduced melanin content
